SUBJECT_OF_TEST: mitogen-activated protein kinase-activated protein kinase 2 (human MK2) (human, UniProt P49137 46-400)
Sequence (P49137 46-400): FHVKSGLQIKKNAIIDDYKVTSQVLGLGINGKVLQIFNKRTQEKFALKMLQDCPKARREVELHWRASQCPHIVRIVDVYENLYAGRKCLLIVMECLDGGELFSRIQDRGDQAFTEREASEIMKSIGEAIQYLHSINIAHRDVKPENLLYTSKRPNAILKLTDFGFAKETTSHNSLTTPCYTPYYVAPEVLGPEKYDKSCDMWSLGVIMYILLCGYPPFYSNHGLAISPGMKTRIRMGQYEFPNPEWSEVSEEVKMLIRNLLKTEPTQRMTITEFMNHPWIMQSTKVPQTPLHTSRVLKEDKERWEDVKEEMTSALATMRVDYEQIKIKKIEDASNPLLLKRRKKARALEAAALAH
METHOD_SUMMARY: kinase inhibition, radiometric assay
MEASURE: pIC50
Here pIC50 is given on a logarithmic scale as minus log10 of the concentration in mol/L.

Reported pIC50, binder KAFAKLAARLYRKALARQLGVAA : ____
5.35
